// data source = patent US20120302607A1

Molecular target: truncated rat FAAH (rFAAH) (Rattus norvegicus, UniProt P97612)
Construct: The truncated rat FAAH (rFAAH) was expressed in E. coli and purified as described by Patricelli et al; made in house; host or cells: E. coli
Sequence (P97612 30-579 limits assumed): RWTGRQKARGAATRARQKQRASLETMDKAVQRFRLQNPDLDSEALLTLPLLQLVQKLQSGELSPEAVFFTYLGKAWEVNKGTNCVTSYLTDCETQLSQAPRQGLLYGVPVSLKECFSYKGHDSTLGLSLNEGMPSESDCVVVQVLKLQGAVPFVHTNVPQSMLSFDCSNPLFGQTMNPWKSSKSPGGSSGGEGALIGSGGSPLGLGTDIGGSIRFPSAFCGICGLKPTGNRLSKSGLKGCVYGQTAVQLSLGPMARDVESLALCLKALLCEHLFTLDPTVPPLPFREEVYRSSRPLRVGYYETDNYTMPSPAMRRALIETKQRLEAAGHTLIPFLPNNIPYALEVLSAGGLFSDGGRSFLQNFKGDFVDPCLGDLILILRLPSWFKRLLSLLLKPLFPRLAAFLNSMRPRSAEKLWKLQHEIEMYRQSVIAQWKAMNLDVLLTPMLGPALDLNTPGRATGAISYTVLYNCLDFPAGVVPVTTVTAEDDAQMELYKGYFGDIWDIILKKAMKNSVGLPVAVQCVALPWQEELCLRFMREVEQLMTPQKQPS
Experiment: Rat FAAH inhibition enzyme assay (14C-oleamide hydrolysis, Dixon plot)
Type: biochemical
Details: Table 4; value ± error; read-out: Ki, inhibition results with calculated errors
For each record, write down the corresponding log10 of Ki.
Note the log scale: values are log10 of Ki expressed in nM.

Study these solved cases before continuing.
>>> numeric_readout("COc1coc(C(=O)CCCCCCc2ccccc2)n1")
2.87
>>> numeric_readout("COC(=O)c1coc(C(=O)CCCCCCc2ccccc2)n1")
0.53
>>> numeric_readout("CSc1coc(C(=O)CCCCCCc2ccccc2)n1")
1.46
>>> numeric_readout("O=Cc1coc(C(=O)CCCCCCc2ccccc2)n1")
1.74

Prompt line: Using known records, supply log10 of Ki for NC(=O)c1coc(C(=O)CCCCCCc2ccccc2)n1
Response line: 0.20
